# maps each entry to its pA2
# system tested: Adrenergic receptor beta (Homo sapiens, UniProt P08588+P07550+P13945)
# test protocol: In vitro blocking of beta adrenergic receptor in guinea pig trachea
# Format: tissue-based, Cavia porcellus
# assay context: target entry is the homologue from another species
property: pA2

molecule | measurement
CC(C)(C)NCC(O)COC(=O)c1cccc(N)c1 (configuration not stated) | 7.2
COc1ccc(CCNCC(O)C(=O)Oc2ccccc2)cc1OC (configuration not stated) | 5.9
CC(=O)Nc1cccc(C(=O)OCC(O)CNC(C)C)c1 (configuration not stated) | 6.4
CC(C)NCC(O)COC(=O)c1cccc(N)c1 (configuration not stated) | 6.8
CC(C)NCC(O)COC(=O)c1cccc2ccccc12 (configuration not stated) | 7
CC(C)(C)NCC(O)COC(=O)c1ccc([N+](=O)[O-])cc1Cl (configuration not stated) | 6.5
CC(=O)Nc1ccc(C(=O)OCC(O)CNC(C)C)cc1 (configuration not stated) | 5.2
COc1ccc(CCNCC(O)COC(=O)c2ccccc2Cl)cc1OC (configuration not stated) | 7.5
CC(C)(C)NCC(O)COC(=O)c1ccccc1O (configuration not stated) | 8
C=CCOc1ccccc1C(=O)OCC(O)CNC(C)C (configuration not stated) | 6.2
CC(C)(C)NCC(O)COC(=O)c1ccc(C=O)cc1 (configuration not stated) | 6.3
C=CCOc1cccc(C(=O)OCC(O)CNC(C)C)c1 (configuration not stated) | 6.8
